Cited source: ChEMBL document CHEMBL1909046

- Measured On: Melanocortin receptor 3 (Homo sapiens, UniProt P41968)
- Sequence (P41968 whole entry): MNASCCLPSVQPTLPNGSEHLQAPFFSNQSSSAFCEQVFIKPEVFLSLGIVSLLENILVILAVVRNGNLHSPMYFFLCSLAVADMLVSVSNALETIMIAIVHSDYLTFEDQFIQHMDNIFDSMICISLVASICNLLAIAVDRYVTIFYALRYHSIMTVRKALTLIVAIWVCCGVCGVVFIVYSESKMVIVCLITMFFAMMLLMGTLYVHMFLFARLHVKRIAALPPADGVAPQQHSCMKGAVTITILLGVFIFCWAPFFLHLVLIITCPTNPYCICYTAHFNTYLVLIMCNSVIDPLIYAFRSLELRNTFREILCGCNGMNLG
- Format: cell membranes, Membrane
- Condition Parameters: hek293; also: in other assays of this panel Not Active means under 50% inhibition at 10 µM
Value Kind: IC50

C[C@]12CC[C@@H]3c4ccc(O)cc4CC[C@H]3[C@@H]1C[C@@H](O)[C@@H]2O [ESTRIOL]	Not Active
COC(=O)Nc1nc2cc(C(=O)c3ccc(F)cc3)ccc2[nH]1 [FLUBENDAZOLE]	Not Active
CCN(CC)CCNC(=O)c1ccc(N)cc1 [PROCAINAMIDE]	Not Active
COc1ccc2c(c1OC)C(=O)O[C@@H]2[C@H]1c2c(cc3c(c2OC)OCO3)CCN1C [NOSCAPINE]	Not Active

* * *

- Measured On: Muscarinic acetylcholine receptor M4 (Homo sapiens)
- Sequence (P08173 whole entry): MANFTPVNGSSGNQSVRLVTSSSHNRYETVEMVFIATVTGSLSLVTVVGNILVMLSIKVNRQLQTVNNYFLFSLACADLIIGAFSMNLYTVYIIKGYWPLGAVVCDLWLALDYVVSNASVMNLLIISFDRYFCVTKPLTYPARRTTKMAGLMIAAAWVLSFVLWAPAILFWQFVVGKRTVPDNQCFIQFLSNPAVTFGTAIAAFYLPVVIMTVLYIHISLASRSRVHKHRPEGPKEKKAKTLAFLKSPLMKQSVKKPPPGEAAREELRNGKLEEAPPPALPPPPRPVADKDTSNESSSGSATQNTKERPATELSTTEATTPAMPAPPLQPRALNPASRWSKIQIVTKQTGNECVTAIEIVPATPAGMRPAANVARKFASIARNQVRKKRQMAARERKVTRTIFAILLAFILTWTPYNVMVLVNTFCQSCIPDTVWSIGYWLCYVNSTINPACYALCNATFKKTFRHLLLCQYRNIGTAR
- Assay type: cell membranes, CHO-K1, Membrane
- Condition Parameters: cho-k1
Value Kind: IC50

CC(C)NC[C@@H](O)COc1cccc2ccccc12	Not Active
C[C@@](Cc1ccc(O)c(O)c1)(NN)C(=O)O.O	Not Active
CO/N=C(\C(=O)N[C@@H]1C(=O)N2C(C(=O)O)=C(COC(C)=O)CS[C@H]12)c1csc(N)n1	Not Active
CCOc1nc2cccc(C(=O)O)c2n1Cc1ccc(-c2ccccc2-c2nnn[nH]2)cc1	Not Active
CC(C)C[C@H]1C(=O)N2CCC[C@H]2[C@]2(O)O[C@](NC(=O)[C@@H]3C=C4c5cccc6[nH]cc(c56)C[C@H]4N(C)C3)(C(C)C)C(=O)N12	Not Active
CC(O)(P(=O)(O)O)P(=O)(O)O	Not Active

// query Please provide the recorded IC50 for `CN(C)C(=N)NC(=N)N` , tested on Muscarinic acetylcholine receptor M4 (Homo sapiens). Also: in other assays of this panel Not Active means under 50% inhibition at 10 µM.
// result Not Active

// query Please provide the recorded IC50 for `Oc1ccc2c3c1O[C@H]1[C@@H](O)CC[C@@]4(O)[C@@H](C2)N(CC2CCC2)CC[C@]314` , tested on Muscarinic acetylcholine receptor M4 (Homo sapiens). Also: in other assays of this panel Not Active means under 50% inhibition at 10 µM.
// result Not Active

// query Please provide the recorded IC50 for `O=c1c(-c2ccc(O)cc2)coc2cc(O)cc(O)c12` , tested on Muscarinic acetylcholine receptor M4 (Homo sapiens). Also: in other assays of this panel Not Active means under 50% inhibition at 10 µM.
// result Not Active

// query Please provide the recorded IC50 for CC(C)(C)NCC(O)COc1cccc2c1CC(O)C(O)C2 (configuration not stated) , tested on Muscarinic acetylcholine receptor M4 (Homo sapiens). Also: in other assays of this panel Not Active means under 50% inhibition at 10 µM.
// result Not Active

// query Please provide the recorded IC50 for CCCNC(=O)NS(=O)(=O)c1ccc(Cl)cc1 [CHLORPROPAMIDE] , tested on Muscarinic acetylcholine receptor M4 (Homo sapiens). Also: in other assays of this panel Not Active means under 50% inhibition at 10 µM.
// result Not Active

// query Please provide the recorded IC50 for `O=C(O)c1ccccc1O` , tested on Muscarinic acetylcholine receptor M4 (Homo sapiens). Also: in other assays of this panel Not Active means under 50% inhibition at 10 µM.
// result Not Active
